# Test system: UACC-62
# test: NCI tumour cell line growth inhibition, 48 h
The source made the active and inactive calls. Rule as the data show it: active = GI50 up to about 1.1 µM and inactive = higher.
Field 'call' accepts true (1) (active), false (0) (inactive)

Could you please tell me the result logged for COC(=O)/C(=C\c1cn(C(C)=O)c2ccccc12)P(=O)(OC)OC in this assay?
false (0)

Check the results log: what was the call for COc1ccc(CNc2nc(NCc3ccc(OC)cc3)nc(N3CCOCC3)n2)cc1 ?
false (0)

Test call for this compound, please: Cn1c(-c2ccccc2)cc(-c2cccs2)c1-c1cccs1
false (0)

----------
What GI50 was measured for each of the following?
# Test system: LOX IMVI
# test: NCI tumour cell line growth inhibition, 48 h
Calls of active or inactive are those of the source. Rule as the data show it: active = GI50 up to about 1.1 µM and inactive = higher.

Please provide the recorded GI50 for O=[N+]([O-])c1cccc(C2=NN(c3ccccc3)C3c4cc(Br)ccc4OCC23)c1 (stereo not given) , tested on LOX IMVI.
> 100 µM (inactive)

Which GI50 is reported with LOX IMVI for this entry: CCOC(=O)CC(=O)Nc1c(C(=O)OCC)sc2nc(SC)nc(Nc3ccc(OC)c(OC)c3)c12 ?
39.4 µM (inactive)

Give GI50 (LOX IMVI) of the following compound: COC(=O)C1=C(C)NC(C)=C(C(=O)OC)C1c1cccc(N=O)c1
17.4 µM (inactive)

Each of the following entries comes with a recorded value; kindly state GI50 for each.
1. C=CCCC1(C)CCCNC1=S (stereo not given)
2. O=C1Oc2ccccc2C(=O)/C1=C/N1C(=O)/C(=C/c2ccc([N+](=O)[O-])cc2)SC1=S
3. Cc1c(CN)c(C)c(CN)c(C)c1CN
4. CC(O)CN1c2ccccc2Sc2ccccc21 (stereo not given)

["> 100 µM (inactive)", "29.6 µM (inactive)", "> 100 µM (inactive)", "> 100 µM (inactive)"]
